- Test system: HOP-62 NSCLC
- Experiment Description: NCI-60 one-dose screen, 48 h (100 = growth as untreated, 0 = no growth, -100 = all killed)
- Condition Label: 10 µM unless noted
This is part of a sample that, as a whole, favours compounds with a hit. Of some 83,000 tested, about 20% had one in any assay.
Known growth of a selection of compounds
Answer with a number only, understood to be in %.

Query `CC(C)(C#N)c1cc(C(=O)Nc2cc(Nc3ncccc3-c3ncnc4nc[nH]c34)ccc2F)cc(C(F)(F)F)c1` on HOP-62 NSCLC; growth returned: 45.7

Query COc1ccc(C2=NN(C=O)C(c3ccc(Oc4nc5c(c(=O)n(C)c(=O)n5C)n4C)c(OC)c3)C2)cc1 (stereo not drawn) on HOP-62 NSCLC; growth returned: 87

Query `Cn1cc(-c2csc(-c3cn(CCO)c4ccc(F)cc34)n2)c2cccnc21` on HOP-62 NSCLC; growth returned: 52.6
